- target-of-assay: Pancreatic triacylglycerol lipase (Homo sapiens)
- Sequence (P16233 whole entry): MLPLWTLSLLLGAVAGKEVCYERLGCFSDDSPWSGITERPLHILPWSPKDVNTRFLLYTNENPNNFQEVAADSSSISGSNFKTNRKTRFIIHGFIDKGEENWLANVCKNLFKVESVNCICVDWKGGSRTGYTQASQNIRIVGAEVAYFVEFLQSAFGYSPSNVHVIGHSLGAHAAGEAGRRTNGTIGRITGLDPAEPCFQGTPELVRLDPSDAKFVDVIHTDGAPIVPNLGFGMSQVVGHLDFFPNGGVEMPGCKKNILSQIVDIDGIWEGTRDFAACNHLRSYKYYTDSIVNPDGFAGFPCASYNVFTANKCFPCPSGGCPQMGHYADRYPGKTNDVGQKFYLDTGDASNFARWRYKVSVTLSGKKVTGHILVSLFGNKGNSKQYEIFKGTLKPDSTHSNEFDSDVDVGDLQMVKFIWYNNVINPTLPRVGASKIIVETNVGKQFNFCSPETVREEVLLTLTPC
assay-readout: IC50

Prompt: Which IC50 value belongs to O=C(Cn1c(Cc2ccc(Br)cc2)nc2ccccc2c1=O)NNC(=O)c1cc2ccccc2oc1=O ?
Response: 2800 nM
